- Tested on: CD34+ cells from cord blood
- measurement_description: Expansion of cord blood CD34+ cells, seven-day culture (Example 35)
- Format: cell-based, human
- measurement_conditions: sample compound 2 μM, normalized fold change days 1 to 7
quantity_measured: CD133 effect (relative expansive effect on CD34+/CD133+ cells)

{"compound": "CC(C)(C)C(=O)Nc1ccc2c(c1)/C(=N/O)c1ccccc1-2 [Compound 1.013]", "measurement": "++++ (2.16 ≤ x < 2.52)"}
{"compound": "CC(C)(C)C(=O)Nc1ccc2c(c1)C(=O)c1c(O)cccc1-2 [Compound 1.006]", "measurement": "++ (1.44 ≤ x < 1.8)"}
{"compound": "CC(=O)Oc1ccc2c(c1)C(=O)c1cc(OC(C)=O)ccc1-2 [Compound 1.027, 9-oxo-9H-fluorene-2,7-diyl diacetate]", "measurement": "++ (1.44 ≤ x < 1.8)"}
{"compound": "CC(C)(C)C(=O)Nc1ccc2c(c1)C(=O)c1cc(O)ccc1-2 [Compound 1.007]", "measurement": "++++ (2.16 ≤ x < 2.52)"}

Now consider a different compound.
Record lookup: for CD34+ cells from cord blood, what CD133 effect (relative expansive effect on CD34+/CD133+ cells) belongs to CC(C)(C)C(=O)Nc1ccc2c(c1)C(C#N)c1ccccc1-2 (stereo not drawn) [Compound 1.026, N-(9-cyano-9H-fluoren-2-yl)pivalamide] ?
++ (1.44 ≤ x < 1.8)

###

- Test system: CD34+ cells from cord blood
- measurement_description: Expansion of cord blood CD34+ cells, seven-day culture (Example 35)
- Format: cell-based, human
- measurement_conditions: sample compound 8 μM, normalized fold change days 1 to 7
quantity_measured: CD133 effect (relative expansive effect on CD34+/CD133+ cells)

Sample records with CD133 effect (relative expansive effect on CD34+/CD133+ cells):
{"molecule": "COC1c2ccccc2-c2ccc(NC(=O)C(C)(C)C)cc21 (centres unmarked) [Compound 1.025, N-(9-methoxy-9H-fluoren-2-yl)pivalamide]", "target_of_assay": "CD34+ cells from cord blood", "measurement": "+++ (1.8 ≤ x < 2.16)"}
{"molecule": "CCOC1c2ccccc2-c2ccc(NC(=O)C(C)(C)C)cc21 (centres unmarked) [Compound 1.023, N-(9-ethoxy-9H-fluoren-2-yl)pivalamide]", "target_of_assay": "CD34+ cells from cord blood", "measurement": "++ (1.44 ≤ x < 1.8)"}
{"molecule": "CC(=O)Nc1ccc2c(c1)C(O)c1ccccc1-2 (centres unmarked) [Compound 1.029, N-(9-hydroxy-9H-fluoren-2-yl)acetamide]", "target_of_assay": "CD34+ cells from cord blood", "measurement": "++++ (2.16 ≤ x < 2.52)"}
{"molecule": "CC(C)(C)C(=O)Nc1cc2c(cc1O)-c1ccccc1C2=O", "target_of_assay": "CD34+ cells from cord blood", "measurement": "++ (1.44 ≤ x < 1.8)"}
{"molecule": "CC(=O)OC1c2ccccc2-c2ccc(NC(=O)C(C)(C)C)cc21 (centres unmarked) [Compound 1.024, 2-pivalamide-9H-fluoren-9-yl acetate]", "target_of_assay": "CD34+ cells from cord blood", "measurement": "+++ (1.8 ≤ x < 2.16)"}

Data request, read-out CD133 effect (relative expansive effect on CD34+/CD133+ cells), for `CC(C)(C)C(=O)Nc1ccc2c(c1)C(=O)c1cc(N)ccc1-2`
++++ (2.16 ≤ x < 2.52)

Data request, read-out CD133 effect (relative expansive effect on CD34+/CD133+ cells), for CC(=O)Nc1ccc2c(c1)C(OC(C)=O)c1ccccc1-2 (centres unmarked) [Compound 1.022, 2-acetamido-9H-fluoren-9-yl acetate]
+++ (1.8 ≤ x < 2.16)
